meta.source: patent US4452788A

# tgt: adenosine receptor
# experimental-protocol: adenosine receptor antagonism assayed by the procedure described in Proc. Natl. Acad. Sci. USA, 77, 5547 (1980)
# Format: binding
# cond: procedure of Proc. Natl. Acad. Sci. USA, 77, 5547 (1980)
Counter-ions that a name gives are not always drawn.
Give measured IC50 for each item. Keep answers brief.

Task: Tell me measured IC50 for CCCn1c(=O)c2[nH]c(-c3ccc(S(=O)(=O)O)cc3)nc2n(CCC)c1=O [n-C3 H7, n-C3 H7, H, 4-SO3 K, potassium salt] please.
Output: 0.1 µM

Task: Quickly give me recorded IC50 for "CCn1c(=O)c2[nH]c(-c3ccc(S(N)(=O)=O)cc3)nc2n(CC)c1=O"
Output: 0.05 µM

Task: Tell me measured IC50 for "CCn1c(=O)c2[nH]c(-c3ccc(S(=O)(=O)N4CCOCC4)cc3)nc2n(CC)c1=O" please.
Output: 0.3 µM
